Subject Of Test: T1, guinea pig recombinant ADAMTS5 (guinea pig)
T1 chain: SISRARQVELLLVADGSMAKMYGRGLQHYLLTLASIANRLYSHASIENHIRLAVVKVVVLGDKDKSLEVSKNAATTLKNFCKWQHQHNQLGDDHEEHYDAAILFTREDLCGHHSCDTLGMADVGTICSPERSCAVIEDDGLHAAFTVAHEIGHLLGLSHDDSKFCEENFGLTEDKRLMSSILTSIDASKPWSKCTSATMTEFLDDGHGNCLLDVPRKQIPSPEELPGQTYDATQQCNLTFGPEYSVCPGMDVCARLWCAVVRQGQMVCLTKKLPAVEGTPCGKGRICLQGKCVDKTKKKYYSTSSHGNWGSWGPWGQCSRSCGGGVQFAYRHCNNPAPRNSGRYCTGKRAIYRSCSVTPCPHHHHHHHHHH
Assay: cell-based or functional assay
What AlphaLISA potency IC50, Guinea pig was measured for each of the following?

Asked: What value of AlphaLISA potency IC50, Guinea pig has been recorded for this entry: Nanobody 3D01 (VHH, tagged as tested (anti-Flag detection, IMAC); also called 03D01) VHH: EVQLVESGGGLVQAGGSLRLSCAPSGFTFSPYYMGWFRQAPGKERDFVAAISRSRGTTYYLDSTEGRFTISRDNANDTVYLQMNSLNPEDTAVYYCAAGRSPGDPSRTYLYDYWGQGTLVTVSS
Given back: 0.35 nM

Asked: Next record, please: Nanobody 2F03 (VHH, tagged as tested (anti-Flag detection, IMAC); also called 02F03; 2F3) VHH: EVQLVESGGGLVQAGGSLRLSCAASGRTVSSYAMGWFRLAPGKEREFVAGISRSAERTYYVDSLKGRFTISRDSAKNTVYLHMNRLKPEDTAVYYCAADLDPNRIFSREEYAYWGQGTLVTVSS
Given back: 0.3 nM

Asked: Next record, please: Nanobody 9D03 (VHH, tagged as tested (anti-Flag detection, IMAC); also called 09D03; 9D3) VHH: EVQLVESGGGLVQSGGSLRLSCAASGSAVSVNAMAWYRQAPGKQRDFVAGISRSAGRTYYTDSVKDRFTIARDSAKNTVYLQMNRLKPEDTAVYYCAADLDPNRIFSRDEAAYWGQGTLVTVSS
Given back: 0.13 nM

Asked: Next record, please: Nanobody 3B02 (VHH, tagged as tested (anti-Flag detection, IMAC); also called 03B02; 3B2) VHH: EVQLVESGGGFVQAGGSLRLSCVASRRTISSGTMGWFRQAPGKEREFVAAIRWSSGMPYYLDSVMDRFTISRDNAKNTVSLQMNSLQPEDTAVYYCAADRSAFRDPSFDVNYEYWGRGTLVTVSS
Given back: 0.46 nM
